Would you mind telling me the reported apparent KD of K4 kissing-loop reporter of each entry?
System: K4 kissing-loop RNA reporter;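 further: bound reporter read as fluorescence of individual clusters on recovered sequencing chips by microscopy, with normalized cluster intensities fitted with a binding model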
assay.protocol: apparent KD of K4 kissing-loop reporter; higher = weaker reporter binding
test.conditions: Eterna round: R107; input ligand: tryptophan 2.4 mM
Answers are plain numbers, in µM.

Worked cases, apparent KD of K4 kissing-loop reporter given:
[
  {
    "biosequence": "AUGCUUCAGUAAGGAUAUGGAGGCAGAGUGAAGAUUGUCGUGUAACCGAGUUAAGUGAUGUUUGAUCCAGAAGGUACAUGCGUGU [theeternabot_exclusion_KL_FMN_B_15]",
    "target.system": "K4 kissing-loop RNA reporter",
    "apparent KD of K4 kissing-loop reporter, µM": 0.605
  },
  {
    "biosequence": "CCGCUACCCUCAGGAUAUUAAGUAUUAGUGAUGUUAGUAAACCGAUGGCGAAAGCCAUCGGUAUGUUGAGAAGGGAGGGUAGCGG [whbob_SS_FMNB__2th198]",
    "target.system": "K4 kissing-loop RNA reporter",
    "apparent KD of K4 kissing-loop reporter, µM": 0.923
  },
  {
    "biosequence": "GGACCACCAGUGAUGUUGGAGAUAAACUCCAAGGAUAUGACGAAAGUCAGAAGGUGGUAAUAAGACGUCAAAGACGUCAGGUCCA [FmnA 20 #SwitchBubble #K4Early]",
    "target.system": "K4 kissing-loop RNA reporter",
    "apparent KD of K4 kissing-loop reporter, µM": 0.178
  },
  {
    "biosequence": "GGCACGGGCUCGGCCGCCACUCCCGCGGGUCGAAAGGUCCGCUACUGAGUGAUGUUCGGUUGGAGGAGGACCGGGAGCCCGUGCC [#2 Exclusion - Tryptophan B Attempt #23 (HarryS)]",
    "target.system": "K4 kissing-loop RNA reporter",
    "apparent KD of K4 kissing-loop reporter, µM": 0.0984
  },
  {
    "biosequence": "AACCACUCGUUACAUCACUAUCGAGUGGAACGAGGACCGGUACGGCCGCCACUCGAUAACUUGCAGUGAUGUUGCAAGUAAGAAU [(T)''-(K)'-(T)'-(T1)-(T2)-(K1)-(K2)_Design9]",
    "target.system": "K4 kissing-loop RNA reporter",
    "apparent KD of K4 kissing-loop reporter, µM": 0.289
  }
]

Take each entry in turn and give its apparent KD of K4 kissing-loop reporter.
1. GAACGAGUGAUGUUCGUUGGCAUGCAUUCCGAGGAUAUGGGAUUAGCCAGAAGGCGGAAUCAGUCUUCGAGUGAUGUUCGAAGAU [Same State FMN A GF 12]
2. AAAUUUAAUAUAUUUAAUUAAUUAUGUGAUACCAGACAUUAAUAAGUCCCUUGGCAGCACAAUGCAGUGAUGUUGCUUAUAAUAA [JR_SSTheophyA_Sub010]

1. 0.111
2. 0.0703

List apparent KD of K4 kissing-loop reporter for every entry below, keeping the order given.
1. GUACGCUCUCGAGUGAUGUUCGGUAAUCGCUAGGAUAUCGCUUUUGCGAGAAGGAGCGGAAUGAGGAAACUCGUUCUGAGUGUAC [FMN A 22]
2. UAUUUAGUGACGGCCGCCACUAUGGUGAUUUAUUUGUUUGAGUGAUGUUUUGAUGUUUGAUUUUGUAGGACCGGGUUAUGUGUUG [yyycmullin]

[0.476, 0.595]
